- TARGET: T1, HU (Spiroplasma melliferum, UniProt A0ABX5UAT3 1-94)
- T1 sequence: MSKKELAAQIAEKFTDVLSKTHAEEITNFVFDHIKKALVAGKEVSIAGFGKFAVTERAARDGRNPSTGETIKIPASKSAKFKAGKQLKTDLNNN
- PROTOCOL_SUMMARY: EMSA; 20 mM Tris-HCl pH 8.0, 150 mM NaCl, 7% glycerol; 15 min; labelled DNA 10.5 nM; gel in 100 mM Tris-borate; temperature not stated
- ASSAY_CONDITIONS: protein: recombinant; tags: N-terminal 6xHisTEV removed by TEV protease; chain copies: 2; label: 5'-HEX on strand 1; 3' overhang 28 nt
MEASUREMENT_KIND: pKd
In simple prose, pKd is minus the logarithm base ten of a concentration in moles per litre.

// sample overhang (ov) (structured_DNA) DNA 1: AGTCTAGAGTGCAGTTGAGTCCTTGCTACGACGGATCCCTTAGGTCAG DNA 2: ACTCAACTGCACTCTAGACT , its pKd was 7.35

All values here come from paper PMC5683647.
